MEASUREMENT_DESCRIPTION: qHTS assay for small molecule disruptors of the mitochondrial membrane potential (AID 720635)
TEST_PARAMETERS: HepG2 mitochondrial membrane potential, Mito-MPS dye ratio; series mostly up to 83.2 µM
Results filed as inconclusive are left out. The source made the active and inactive calls. Calls come from the whole dose curve; as a rule, active = well fitted inhibition curve with a large enough effect in the signal ratio in the repeat runs; inconclusive = weak or mixed curves, or effect the other way; inactive = flat fitted curve, though single readings scatter; the % refers to the signal ratio. Non-standard residues stand in square brackets, D forms with d. Residues, ends and D or L forms follow the SMILES beside them. *: point of attachment. Sta = CC(C)C[C@H](N)[C@@H](O)CC(=O)O; Isovaleryl = CC(C)CC(=O)*
Can you answer with just one of these options? active, inactive

Past entries and their recorded results:
COc1cc(OC)cc(OC)c1 | inactive
CCN1CCN(C(=O)N[C@@H](C(=O)N[C@@H]2C(=O)N3[C@@H]2SC(C)(C)[C@H]3C(=O)O)c2ccccc2)C(=O)C1=O | inactive
CC(C)(O)c1ccc(C(C)(C)O)cc1 | inactive
CCCCCCC(=O)c1ccccc1 | inactive
CCO[Si](CC(C)C)(OCC)OCC | active
NCC1CCC(C(=O)Oc2ccc(CCC(=O)O)cc2)CC1 (stereo not drawn) | inactive

Task item: Write down the call the test reported for this molecule. Item: "CCOC(=O)[C@H](CCc1ccccc1)N[C@H]1CS[C@H](c2cccs2)CN(CC(=O)O)C1=O"
Reply: inactive

Task item: Can you check "C/C=C(\C)C(=O)OC/C=C(\C)CCC=C(C)C" next?
Reply: inactive

Task item: Can you check "O=C(O)COc1ccc2ccccc2c1" next?
Reply: inactive

Task item: Can you check "NC[C@H]1O[C@H](O[C@H]2[C@H](O)[C@@H](O[C@H]3O[C@H](CO)[C@@H](O)[C@H](N)[C@H]3O)[C@H](N)C[C@@H]2N)[C@H](N)[C@@H](O)[C@@H]1O" next?
Reply: inactive

Task item: Can you check "NS(=O)(=O)c1cc2c(cc1C(F)(F)F)NCNS2(=O)=O" next?
Reply: inactive

Task item: Can you check CCC(C)c1nccnc1OC (stereo not drawn) next?
Reply: inactive

Task item: Can you check CC(C)CC(=O)N[C@H](C(=O)N[C@H](C(=O)N[C@@H](CC(C)C)[C@@H](O)CC(=O)N[C@@H](C)C(=O)N[C@@H](CC(C)C)[C@@H](O)CC(=O)O)C(C)C)C(C)C (Isovaleryl-VV[Sta]A[Sta]-OH) next?
Reply: inactive

Task item: Can you check "CCCCCCCCS(=O)(=O)O" next?
Reply: inactive

Task item: Can you check "Cc1ccc(O)c([N+](=O)[O-])c1" next?
Reply: inactive

====

MEASUREMENT_DESCRIPTION: qHTS RealTime-Glo MT Cell Viability Assay in HEK293 cells - 8 hour (AID 1224887); note: top concentration of the series differs between compounds; % is set by controls: 0 for no effect and ±100 for the full control effect; nearly all actives have a fitted effect of over 50% in size
TEST_PARAMETERS: RealTime-Glo luminescence; series mostly up to 76.8 µM
Results filed as inconclusive are left out. Calls of active or inactive are those of the source. Calls come from the whole dose curve; as a rule, active = well fitted cell-killing curve with a large enough effect in the repeat runs; inconclusive = weak or mixed curves, or effect the other way; inactive = flat fitted curve, though single readings scatter.
REPORTED_ENDPOINT: activity change, negative = cytotoxicity

Please review the following examples before continuing.
CC12CCCC=C1C(=O)OC2=O (configuration not stated) | inactive
COc1cnc(NS(=O)(=O)c2ccc(N)cc2)nc1 | inactive
CC(C)(Sc1cc(C(C)(C)C)c(O)c(C(C)(C)C)c1)Sc1cc(C(C)(C)C)c(O)c(C(C)(C)C)c1 | inactive
O=CN1CCCCC1 | inactive
CCCCCCCCCCCCCCCC(=O)OC | 0.781% [at 15.8 µM] (inactive)
CCOC(=O)CC(C(C)=O)C(C)=O | inactive
Cc1cc(O)c(Cl)cc1C | inactive
O=C(O)CCC(=O)Nc1ccc(S(=O)(=O)Nc2nccs2)cc1 | inactive
C[C@@H]1CC[C@@]2(OC1)O[C@H]1C[C@H]3[C@@H]4CC[C@H]5C[C@@H](O)CC[C@]5(C)[C@H]4CC(=O)[C@]3(C)[C@H]1[C@@H]2C | 2.92% [at 6.97 µM] (inactive)
Cc1cccc(N)n1 | inactive

Please state activity change, negative = cytotoxicity for every compound in the list that follows.
1. CN1C(CCl)Nc2cc(Cl)c(S(N)(=O)=O)cc2S1(=O)=O (configuration not stated)
2. CC(C)OCCO

Reply:
inactive
inactive

====

MEASUREMENT_DESCRIPTION: qHTS assay to identify small molecule antagonists of the estrogen receptor alpha (ER-alpha) signaling pathway using the BG1 cell line in the presence of 0.1 nM 17-beta-estradiol - cell viability counter screen (AID 1259241); note: % is set by controls: 0 for no effect and ±100 for the full control effect; nearly all actives have a fitted effect of over 40% in size
TEST_PARAMETERS: VM7Luc4E2 (BG1) viability, CellTiter-Fluor protease, 22 h, 0.1 nM estradiol agonist added; series mostly up to 92.4 µM
Inconclusive results are not listed. Calls of active or inactive are those of the source. Calls come from the whole dose curve; as a rule, active = well fitted cell-killing curve with a large enough effect in the repeat runs; inconclusive = weak or mixed curves, or effect the other way; inactive = flat fitted curve, though single readings scatter.
REPORTED_ENDPOINT: activity change, negative = cytotoxicity

C[C@@H]1CC[C@@]2(OC1)O[C@H]1C[C@H]3[C@@H]4CC[C@H]5C[C@@H](O)CC[C@]5(C)[C@H]4CC(=O)[C@]3(C)[C@H]1[C@@H]2C | -0.428% [at 8.39 µM] (inactive)
CCN(CC)CC(=O)Oc1ccc(NC(C)=O)cc1 | inactive
C/C=C/C(=O)CCCC | inactive
CC(=O)O[C@@H]1CC2C3CCc4cc(OC(=O)c5ccccc5)ccc4C3CCC2(C)[C@H]1OC(C)=O (stereo partly drawn) | inactive
CC(C)(C)C(=O)CC(=O)C(C)(C)C | inactive
CC(C)C[P+](C)(CC(C)C)CC(C)C | inactive
O=c1[nH]c(=O)c2cn[nH]c2[nH]1 | inactive
CCCOc1ccc(C(=O)OCCN(CC)CC)cc1N | inactive
N#CC1(N)CCCCC1 | inactive
CCCCCCC(O)CO (stereo not drawn) | inactive

Please state activity change, negative = cytotoxicity for every compound in the list that follows.
1. CC(CC(=O)Cl)CC(C)(C)C (stereo not drawn)
2. C=CCOC(=O)CCCCCCCC
3. C[n+]1ccccc1/C=N/O

Reply:
inactive
inactive
inactive

====

MEASUREMENT_DESCRIPTION: qHTS assay to test for compound auto fluorescence at 535 nm (green) in HepG2 cells (AID 720675); note: % is set by controls: 0 for no effect and ±100 for the full control effect
TEST_PARAMETERS: green autofluorescence 485/535 nm, 1 h; series mostly up to 91.3 µM
Activity calls are given as the source filed them. The call rests on the fitted dose curve; in most records, active means well fitted curve in the direction sought with a large enough effect in the repeat runs; inconclusive means weak or mixed curves; inactive means flat fitted curve, though single readings scatter.
REPORTED_ENDPOINT: fluorescence, % of fluorescein control

Please review the following examples before continuing.
O=C1Nc2ccccc2C1=O | inactive
CC(C)(C)OC(=O)c1ccccc1C(=O)O | inactive
CN(C)CCCN(C)C | -0.223% [at 3.72 µM] (inactive)
O=Cc1ccccc1S(=O)(=O)O | inactive
COCc1nnc(-c2ccc[n+]([O-])c2)n1-c1c(Cl)c(Cl)cc2[nH]c(=O)c(=O)[nH]c12 | inactive

Please state fluorescence, % of fluorescein control for every compound in the list that follows.
1. COC(=O)c1ccc(C(=O)O)cc1
2. CCCCCCCCS(=O)(=O)O
3. NC(=O)CC[C@@H](N)C(=O)O
4. C=CCN(CC=C)CC=C
5. CC(=O)Nc1ccc(S(=O)(=O)Nc2cc(C)on2)cc1
6. NS(=O)(=O)c1cc2c(cc1C(F)(F)F)NCNS2(=O)=O
7. COc1cc2nc(N3CCN(C(=O)C4CCCO4)CC3)nc(N)c2cc1OC (stereo not drawn)

Reply:
inactive
inactive
inactive
inactive
inactive
-0.0771% [at 18.6 µM] (inactive)
inactive

Task item: Find the recorded fluorescence, % of fluorescein control belonging to "CCOC(=O)[C@H](CCc1ccccc1)N[C@H]1CS[C@H](c2cccs2)CN(CC(=O)O)C1=O" and report it.
Reply: inactive

====

MEASUREMENT_DESCRIPTION: Human pregnane X receptor (PXR) small molecule agonists, qHTS cell viability counter screen (AID 1346977); note: % is set by controls: 0 for no effect and ±100 for the full control effect; nearly all actives have a fitted effect of over 50% in size
TEST_PARAMETERS: PXR-Luc HepG2 viability, CellTiter-Fluor, 24 h; series mostly up to 92.4 µM
Results filed as inconclusive are left out. Calls of active or inactive are those of the source. Calls follow the shape of the dose curve; as a rule, active = well fitted cell-killing curve with a large enough effect in the repeat runs; inconclusive = weak or mixed curves, or effect the other way; inactive = flat fitted curve, though single readings scatter.
REPORTED_ENDPOINT: activity change, negative = cytotoxicity

Please review the following examples before continuing.
COc1cc2nc(N3CCN(C(=O)C4CCCO4)CC3)nc(N)c2cc1OC (stereo unspecified) | inactive
CCCC(=O)C(CC)Sc1ccoc1C (stereo unspecified) | inactive
O=C(O)P(=O)(O)O | inactive
CCc1ccc(CC)cc1 | inactive
CCc1ncc(C)[nH]1 | inactive
Cc1cc(=O)oc2cc(O[C@@H]3SC[C@@H](O)[C@H](O)[C@H]3O)ccc12 | inactive

Please state activity change, negative = cytotoxicity for every compound in the list that follows.
1. CCOC(=O)c1ccc(N(C)C)cc1
2. COc1cc(OC)cc(OC)c1
3. O=Cc1ccccc1S(=O)(=O)O
4. CCCCN1C(=O)c2ccccc2C1=O

Reply:
1. inactive
2. inactive
3. inactive
4. inactive

Please state activity change, negative = cytotoxicity for every compound in the list that follows.
1. COC(=O)c1c(C)cc(O)c(C)c1O
2. Cc1cc(C)c(N)c(Cl)c1
3. N#CC1(N)CCCCC1
4. CCC(C)SSC(C)CC (stereo unspecified)
5. CC(C)(O)c1ccc(C(C)(C)O)cc1

Reply:
1: inactive; 2: inactive; 3: inactive; 4: inactive; 5: inactive

Please state activity change, negative = cytotoxicity for every compound in the list that follows.
1. CC(=O)c1ccc(O)c(C(N)=O)c1
2. CCCCCCCCCCCCCCCCN(C)C
3. CCC(=O)OCCOc1ccccc1
4. O=C(OOC(=O)c1ccccc1)c1ccccc1
5. CN(C)CCc1c[nH]c2ccc(CS(=O)(=O)N3CCCC3)cc12
6. CC/C=C\CCOC(=O)c1ccccc1
7. O=C[C@@H](O)[C@H](O)[C@H](O)CO
8. CCCCNCC

Reply:
1: inactive; 2: 1.81% [at 8.39 µM] (inactive); 3: inactive; 4: inactive; 5: inactive; 6: inactive; 7: inactive; 8: inactive

Please state activity change, negative = cytotoxicity for every compound in the list that follows.
1. Cc1ccc(S(=O)(=O)NC(=O)NN2CC3CCCC3C2)cc1 (stereo unspecified)
2. N[C@H]1C(O)O[C@H](CO)[C@@H](O)[C@@H]1O (stereo partly specified)
3. CCCCCCCCCCCCCCCC/C=C/C1CC(=O)OC1=O (stereo unspecified)
4. C=CCON/C(CCC)=C1\C(=O)CC(C)(C)C(C(=O)OC)=C1O
5. CCCCCCCOC(C)=O
6. CCCCOCCCC

Reply:
1. inactive
2. inactive
3. inactive
4. inactive
5. inactive
6. inactive

Please state activity change, negative = cytotoxicity for every compound in the list that follows.
1. Nc1cc(S(=O)(=O)O)ccc1O
2. N=C(N)S(=O)O

Reply:
1: inactive; 2: inactive
